System: TK-10 renal
protocolText: NCI tumour cell line growth inhibition, 48 h; in the data active = GI50 below about 0.43 µM; inactive = the rest
API: response.call in active, inactive

compound	cat
CCc1c2c(nc3ccc(O)cc13)-c1cc3c(c(=O)n1C2)COC(=O)[C@]3(O)CC	inactive
Nc1nc(-c2cccc3ccccc23)cc2ccccc12	inactive
O=c1c(O)c(O)c1=O.[NH2-].[NH2-].[NH2-].[NH2-].[NH2-].[Ru+5]	inactive
Ic1ccc2[nH]cc(SSc3c[nH]c4ccc(I)cc34)c2c1	inactive
COc1ccc2c(c1)N(CCO)C1=C(C(=O)OC1)C2c1cc(OC)c(OC)c(OC)c1 (configuration not stated)	active
Cc1cccc(NC(=O)c2sc3nc4c(cc3c2N)CCCC4)c1	inactive

Below: the item to evaluate.
Identify the outcome logged in this assay for the compound shown: Nc1nc2c(c3cnccc13)C(c1cccc(Br)c1)Cc1cnccc1-2 (configuration not stated) inactive

----------
Each record here notes measured TGI.
System: COLO 205 colon
protocolText: NCI tumour cell line growth inhibition, 48 h

Before answering, review these 2 worked examples.
smilesText	studyTarget	TGI
COc1ccccc1N=Nc1c(-c2ccccc2)nn(C(=O)CC(=O)Nc2ccccc2Cl)c1-c1ccccc1	COLO 205 colon	> 100 µM
COC(=O)[C@@H](Nc1ccccc1)[C@@]1(C(=O)OC)SC12c1ccccc1-c1ccccc12	COLO 205 colon	> 100 µM

Param readout= TGI; system= COLO 205 colon; entry= `CCOC(=O)C=C1CCC2(CC1)OCCO2` ; returns value. > 100 µM

----------
Each record here notes measured TGI.
Test system: KM12 colon
protocolText: NCI tumour cell line growth inhibition, 48 h

compound	TGI
COc1cc(C2c3cc4c(cc3OC(N3CCCCC3)C2C)OCO4)cc(OC)c1OC (stereo not given)	37.4 µM
O=P(O)(OP(=O)(O)c1ccccc1)c1ccccc1 (tested in a mixture with another compound)	> 100 µM
CN(C)CCCNC(=O)CCNC(=O)c1cc(NC(=O)c2cc(NC(=O)c3cc(NC(=O)CCCNC(=O)c4cc(NC(=O)c5cc(NC(=O)c6nccn6C)cn5C)cn4C)cn3C)cn2C)cn1C	> 100 µM
CCOC(=O)[C@@H]1C2C(=C[C@H]3[C@H]1C(=O)N1CCCC[C@H]31)CCCN2C(=O)OCc1ccccc1 (stereo not given in full)	> 100 µM
C=CCN(C(=O)OC(C)(C)C)C1=CC2C(C)=CN(S(=O)(=O)c3ccccc3)C2C(OCc2ccccc2)=C1 (stereo not given)	> 100 µM
COc1cc2c(cc1OC)C1C(O)C(OC)C(Br)C3(Br)CCN(C2)C13 (stereo not given)	> 100 µM
CC(C)(Cl)C(Cl)CC/C(CBr)=C(\Cl)CCl (stereo not given)	19.5 µM
CC#Cc1nc2ccccc2c(=O)[nH]1	6.58 µM

Given the entry C=C(C)[C@@H]1CC[C@]2(CNCCO)CC[C@]3(C)[C@H](CC[C@@H]4[C@@]5(C)CCC(N)[C@@](C)(CO)[C@@H]5CC[C@]43C)[C@@H]12 (stereo not given in full) , report its measured TGI. 3.21 µM

Given the entry `Cc1sccc1C(=S)Nc1ccc(Cl)c(/C=N/OC(C)(C)C)c1` , report its measured TGI. 28.8 µM

Given the entry `C[N+]1(C)C/C(=C/c2ccc(F)cc2)C(=O)/C(=C\c2ccc(F)cc2)C1` , report its measured TGI. > 100 µM

Given the entry CC(NC(=O)C(C)C(=O)Nc1ccc(C(F)(F)F)cc1)C(N)=O (stereo not given) , report its measured TGI. > 100 µM
